# Test system: NCI-H522
# test: NCI tumour cell line growth inhibition, 48 h
The source made the active and inactive calls. No stated cut-off is given here; in the data, active = GI50 up to about 1.1 µM and inactive = higher.
quantityMeasured: GI50

I have this compound here, Cc1oc(N)c(S(=O)(=O)c2cc3ccccc3[n+]([O-])c2N)c1C , and I need its recorded GI50. > 100 µM (inactive)

// query: CC1CC[C@@]2(OC1)OC1C[C@H]3[C@@H]4CC[C@H]5CC(OC6OC(CO)C(OC7OC(CO)C(O)C(O)C7OC7OC(CO)C(O)C(O)C7O)C(O)C6O)CCC5(C)[C@H]4CCC3(C)C1[C@@H]2C (some centres undefined) 1.63 µM (inactive)

# repeat for CC(=O)OC(C)(C)C[N+](=O)[O-] 63.4 µM (inactive)

Also O=C1NC2(C=Cc3c(ccc4ccccc34)O2)Oc2ccccc21 (centres undefined) ? 11.4 µM (inactive)

// query: COCOCC[C@@H]1CC=CC(NC(=O)OCc2ccccc2)C1/C=C/C(=O)CCC1OCCO1 (some centres undefined) 16.4 µM (inactive)

Item: Cc1cc(C(C)(C)C)cc(Cc2cc(C(C)(C)C)cc(Cc3cc(C(C)(C)C)cc(C)c3O)c2O)c1O 3.71 µM (inactive)

Try CC(=O)OC[C@]1(O)CC[C@@]23CC1C[C@@H]2CCC1C(C)(C)CCC[C@@]13C (some centres undefined) next. 2.64 µM (inactive)

For CN(C)c1nc2sc3c(c2c(=O)o1)CCCC3 then? 25.4 µM (inactive)

Can you handle CN(c1nc(=[N+](C)C)ss1)C1CCCCC1 next? > 100 µM (inactive)
